# Tested on: SK-OV-3 ovarian
# test protocol: NCI-60 one-dose screen, 48 h (100 = growth as untreated, 0 = no growth, -100 = all killed)
# assay conditions: 10 µM unless noted
Compounds without any hit were thinned out: in the full panel of roughly 83,000, 20% have a hit.
metric: growth (%)
Field: numeric (%). Do not append units.

See these solved cases before continuing.
* CN(C)c1cccc2c(S(=O)(=O)Nc3cccc(-c4csc(NC(=O)CCCCCN5CCN(CCO)CC5)n4)c3)cccc12 | 107
* CC1(C)CC[C@]2(C(=O)NCCCCCCN(CCCN)CCCN)CC[C@]3(C)C(=CC[C@@H]4[C@@]5(C)CC[C@H](O)C(C)(C)[C@@H]5CC[C@]43C)[C@@H]2C1 | 114
* Cc1ccc2c(n1)C(=O)C(Cl)=C(Nc1ccc(C(C)C)cc1)C2=O | 106
* CCCCCCCCCCCC(=O)NC(C)(C)C(=O)N1CCCC1C(=O)NC(C)(C)C(=O)NC(C)(C)C(=O)N1CCCC1C(=O)NC(C)(C)C(=O)NC(C)(C)C(=O)N1CCCC1C(=O)NC(C)C(=O)NCCC(=O)NC(C)C(=O)NC(C)(C)C(=O)NC(C)(C)C(=O)NC(C)(C)C(=O)NCCC(=O)NC(C)(C)C(=O)NC(C)(C)C(=O)NC(C)(C)C(=O)NC(C)C(=O)NCCC(=O)O (stereo unspecified) | -96.9

[ask] GET /values?readout=growth&item= CC[C@]12C=CCN3CC[C@@]4(c5ccc(OC)cc5N(C)[C@H]4[C@@](O)(C(=O)OC)[C@@H]1OC(=O)CCN1CCc4ccccc4C1)[C@@H]32
[reply] 103

[ask] GET /values?readout=growth&item= COC(=O)CNC(=O)c1cccc(-c2cc(=O)c3c(OC)c(OC)c(OC)cc3o2)c1
[reply] 118

[ask] GET /values?readout=growth&item= CS(=O)(=O)c1nccc(-c2c(-c3cccc(OCc4ccc(Cl)c(C(F)(F)F)c4)c3)nc3sccn23)n1
[reply] 104

[ask] GET /values?readout=growth&item= C[C@@H]1OCC2(CCN(c3cnc(C(=O)Nc4cc(F)cc5cccnc45)cn3)CC2)[C@@H]1N
[reply] 102

###

# System: SF-268 CNS
# test protocol: NCI-60 one-dose screen, 48 h
# assay conditions: 10 µM unless noted
The panel holds about 83,000 compounds, 20% with a hit somewhere; the sample as a whole holds those more often. Active and inactive are the calls of the source. The calls were made as follows: active = growth percent below 10; inactive = the rest.
A correct response names exactly one class from active, inactive

Before answering, review these 8 worked examples.
- O=C(CCCCCC/C=C\c1csc(Br)n1)NO: inactive
- Cc1ccc2c(n1)C(=O)C(Cl)=C(Nc1ccc(C)c(C)c1)C2=O: inactive
- O=S(=O)(Oc1ccc(-c2cn3ccoc3n2)cc1)c1cccc(C(F)(F)F)c1: inactive
- Clc1ccc2c(N/N=C/c3c[nH]c4ccccc34)ccnc2c1: active
- CC(=C(c1ccc(OCCN(C)C)cc1)c1ccc(OCCN(C)C)cc1)c1ccc(Cl)cc1: active
- CCCC/C(=C\c1ccc(O)c(O)c1)C(=O)NC(Cc1ccccc1)C(=O)C(=O)NCCc1ccc(OC)cc1 (stereo not drawn): inactive
- O=c1oc2ccc(-c3ccc(F)cc3F)cc2c(=O)n1-c1ccc(Br)cc1F: inactive
- C=C(C)[C@@H]1CC[C@]2(C(=O)NC3CCCCC3)CC[C@]3(C)[C@H](CC[C@@H]4[C@@]5(C)CC[C@H](N)C(C)(C)[C@@H]5CC[C@]43C)[C@@H]12: inactive

[ask] Answer briefly: the call reported for CCC(=C(c1ccc(OCCN(C)C)cc1)c1ccc(OCCN(C)C)cc1)c1ccc(Cl)cc1 in this assay.
[reply] active

[ask] Answer briefly: the call reported for COc1cc(/C=C2/C(=O)Nc3ccc(Cl)cc32)ccc1OCc1ccc(Cl)cc1 in this assay.
[reply] inactive

[ask] Answer briefly: the call reported for COc1cccc(N2CCN(C3=C(Cl)C(=O)c4ncccc4C3=O)CC2)c1 in this assay.
[reply] inactive

###

The following compounds are shown together with reported growth values.
# Test system: NCI-H322M lung
# test protocol: NCI-60 one-dose screen, 48 h (100 = growth as untreated, 0 = no growth, -100 = all killed)
# assay conditions: 10 µM unless noted
The panel holds about 83,000 compounds, 20% with a hit somewhere; the sample as a whole holds those more often.
Field: numeric (%). Do not append units.

See these solved cases before continuing.
- COc1cccc2c1C=CC1(O2)Oc2cccc(OC)c2C=C1C (stereo not given): 46.1
- Clc1ccc2[nH]cc(-c3cncn3CCc3ccc4c(c3)OCO4)c2c1: 75.5
- N#C/C(=C\c1ccc(-c2ccc(Cl)cc2)o1)C(=O)Nc1ncc(Cc2ccc(Br)cc2)s1: 19.1
- Cc1ccsc1[C@H]1c2[nH]c3ccccc3c2C[C@H]2C(=O)N(CCCCCCC(=O)NO)CC(=O)N12: 81.1
- COc1ccc(NC(=O)CCCCCCNC(=O)C(O)(O)C(F)(F)F)cc1: 66.1

With those in mind, consider the next compound.
[ask] GET /values?readout=growth&item= CN1CCN(c2ccc(Nc3nc(NCCNC(=O)c4ccccc4)c4sccc4n3)cc2)CC1
[reply] 85.2

###

# Test system: HS 578T breast
# test protocol: NCI-60 one-dose screen, 48 h (100 = growth as untreated, 0 = no growth, -100 = all killed)
# assay conditions: 10 µM unless noted
This is part of a sample that, as a whole, favours compounds with a hit. Of some 83,000 tested, about 20% had one in any assay.
metric: growth (%)
Field: numeric (%). Do not append units.

See these solved cases before continuing.
- O=C(CN1CCN(c2cc(=O)[nH]c3ccc(F)cc23)CC1)N(c1ccccc1)c1ccccc1: 101
- Cc1cc(=O)[nH]c(O)c1C#N: 116
- COc1ccc(Cn2cc(C#N)c(N)c2C(C)=O)cc1: 102
- O=C1[C@@H]2Cc3c([nH]c4ccccc34)[C@H](c3ccc(Br)cc3)N2C(=O)CN1C1CCN(Cc2c(Cl)cccc2Cl)CC1: 90.1

[ask] Reported growth for HS 578T breast, given Cc1ccc(S(=O)(=O)c2nc(-c3ccc(F)cc3)oc2S(C)(=O)=O)cc1 ?
[reply] 90.6

###

# Test system: MALME-3M melanoma
# test protocol: NCI-60 one-dose screen, 48 h
# assay conditions: 10 µM unless noted
Compounds without any hit were thinned out: in the full panel of roughly 83,000, 20% have a hit. Calls of active or inactive are those of the source. Rule for the calls: active = growth percent below 10; inactive = the rest.
A correct response names exactly one class from active, inactive

[ask] Answer briefly: the call reported for C[C@H]1OCC2(CCN(c3cnc(C(=O)Nc4cc(F)cc5cccnc45)cn3)CC2)[C@H]1N in this assay.
[reply] inactive

[ask] Answer briefly: the call reported for Cc1[nH]c(C(=O)Nc2ccccc2OCc2cccc(C(=O)NCCN)c2)cc1Cl in this assay.
[reply] inactive

[ask] Answer briefly: the call reported for CN1CCN(c2ccc(Nc3nc(NCCCNS(=O)(=O)c4ccc(Cl)cc4)c4sccc4n3)cc2)CC1 in this assay.
[reply] active

[ask] Answer briefly: the call reported for COc1cc2cc(Oc3ccc(NC(=O)c4cc(C(F)(F)F)cc(C(F)(F)F)c4)cc3)c(C)nc2cc1OCCN1CCOCC1 in this assay.
[reply] inactive

###

# Tested on: BT-549 breast
# test protocol: NCI-60 one-dose screen, 48 h (100 = growth as untreated, 0 = no growth, -100 = all killed)
# assay conditions: 10 µM unless noted
About 83,000 compounds went through this panel and 20% of them were active in at least one assay; those are over-represented in the sample as a whole.
Rule: growth below 50% gives criterion met, anything at or above gives criterion not met.

* NS(=O)(=O)c1ccc(CCn2c(-c3ccc(C(=O)O)cc3)nc(-c3ccccc3)c2-c2ccccc2)cc1 | criterion not met
* O=C1[C@@H]2Cc3c([nH]c4ccccc34)[C@@H](c3ccc(Cl)cc3)N2C(=O)CN1C1CCN(Cc2c(F)cccc2F)CC1 | criterion met
* CC(=O)N(O)CCCCCNC(=O)CCC(=O)N(O)CCCCCNC(=O)CCC(=O)N(O)CCCCCN(CCCCCCCCCC[P+](c1ccccc1)(c1ccccc1)c1ccccc1)CCCCCCCCCC[P+](c1ccccc1)(c1ccccc1)c1ccccc1 | criterion met
* O=C(CSc1nc2ccccc2c(=O)n1-c1ccc(Cl)cc1)N/N=C/c1ccc(Oc2ccc(Cl)cc2)cc1 | criterion met
* CCC(=C(c1ccc(OCCN2CCCCCC2)cc1)c1ccc(OCCN2CCCCCC2)cc1)c1ccc(Cl)cc1 | criterion not met
* CC(=C(c1ccc(OCCCN(C)C)cc1)c1ccc(OCCCN(C)C)cc1)c1ccc(Cl)cc1 | criterion not met
* COc1ccccc1N1CCN(C2=C(Cl)C(=O)c3ncccc3C2=O)CC1 | criterion not met
* CN1CCN(c2ccc(Nc3nc(NCCCNS(=O)(=O)c4ccc(C(F)(F)F)cc4)c4sccc4n3)cc2)CC1 | criterion met
* CN1CCN(c2ccc(Nc3nc(NCCCNS(=O)(=O)c4cccc(F)c4)c4sccc4n3)cc2)CC1 | criterion met
* Cc1ccsc1[C@H]1c2[nH]c3ccccc3c2C[C@H]2C(=O)N(CCCCCCC(=O)NO)CC(=O)N12 | criterion not met

[ask] Field: below-cutoff. Rule: recorded growth strictly less than 50%. Subject: CN1CCN(Cc2ccc(NC(=O)c3cncc(C#Cc4cnc5ccc(OCC6COC6)nn45)c3)cc2C(F)(F)F)CC1
[reply] criterion met

[ask] Field: below-cutoff. Rule: recorded growth strictly less than 50%. Subject: C/C(=N\NC(=O)/C=C/CC(=O)O)c1nnn(-c2ccc([N+](=O)[O-])cc2)c1C
[reply] criterion not met

[ask] Field: below-cutoff. Rule: recorded growth strictly less than 50%. Subject: O=C1Nc2ccccc2/C1=N\c1nnc(-c2ccccc2)o1
[reply] criterion not met

[ask] Field: below-cutoff. Rule: recorded growth strictly less than 50%. Subject: COc1ccc(NC2=C(Br)C(=O)C(C)=C(C)C2=O)cc1OC
[reply] criterion not met

[ask] Field: below-cutoff. Rule: recorded growth strictly less than 50%. Subject: Cc1ncn(-c2ccc(/C=N/Nc3ccnc4cc(Cl)ccc34)cc2)c1C
[reply] criterion met

[ask] Field: below-cutoff. Rule: recorded growth strictly less than 50%. Subject: O=C(O)c1ccc(-n2c(=O)n(-c3cccc(C(F)(F)F)c3)c(=O)c3cc(-c4ccc(F)cc4F)ccc32)cc1
[reply] criterion met

[ask] Field: below-cutoff. Rule: recorded growth strictly less than 50%. Subject: CC[C@H](CC[C@@H](C)[C@H]1CC[C@H]2[C@@H]3CC(=O)C4=CC(=O)/C(=C/c5ccc([N+](=O)[O-])cc5)C[C@]4(C)[C@H]3CC[C@]12C)C(C)C
[reply] criterion not met
